molecular target: Alpha-2C adrenergic receptor (Homo sapiens); assay: modulators of alpha2C/GIRK thallium flux, primary screen, cell-based, HEK293 alpha2C/GIRK1/2 (AID 624); settings: thallium flux BTC fluorescence, at 10 µM, actives lie on both sides;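 also: slope of fluorescence ratio to pre-addition baseline per second over 15 to 24 s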
1.0 if slope is below 0.006. 0.0 if not; exact matches included in 0.0.

For orientation, consider the following solved cases.
1) Cc1c(N=Cc2c(O)n(C3CCCCC3)c(=O)[nH]c2=O)c(=O)n(-c2ccccc2)n1C ... 1.0
2) COC(=O)CSc1nnc2n(-c3ccc(OC)cc3)c(=O)c3c4c(sc3n12)CCCCC4 ... 0.0
3) O=C1c2ccccc2C(=O)C1c1ccc2ccccc2n1 ... 1.0
4) COCCOCCOCCC(=O)NC1CC2CCC1(C)C2(C)C (configuration not stated) ... 0.0
5) CC(C)Cc1nc(NCCN2CCOCC2)c(C#N)c2c1COC(C)(C)C2 ... 1.0

slope under 0.006? Item: O=C(NC1CCS(=O)(=O)C1)N1CCCCC1 (configuration not stated)
1.0

Threshold test, slope < 0.006: COc1ccc(C2C(C#N)=C(N)Oc3n[nH]c(C)c32)cc1CSc1ccccn1 (configuration not stated)
1.0

Does the reported slope of Cn1ncc(N=Cc2ccccc2O)c1C(=O)Nc1ccccc1 stay below 0.006?
1.0

Strictly below 0.006: is that where slope of COc1ccc(OC)c(C2/C(=C(\O)c3ccc4c(c3)OCCO4)C(=O)C(=O)N2CCCN(C)C)c1 (configuration not stated) sits?
0.0

Is slope of CSCCC(CO)NC(=O)OCc1ccccc1 (configuration not stated) strictly below 0.006?
0.0
